system name: cynomolgus Siglec-2/CD22 (Macaca fascicularis, UniProt A0A2K5WCZ6)
Sequence (A0A2K5WCZ6 entry or part of it): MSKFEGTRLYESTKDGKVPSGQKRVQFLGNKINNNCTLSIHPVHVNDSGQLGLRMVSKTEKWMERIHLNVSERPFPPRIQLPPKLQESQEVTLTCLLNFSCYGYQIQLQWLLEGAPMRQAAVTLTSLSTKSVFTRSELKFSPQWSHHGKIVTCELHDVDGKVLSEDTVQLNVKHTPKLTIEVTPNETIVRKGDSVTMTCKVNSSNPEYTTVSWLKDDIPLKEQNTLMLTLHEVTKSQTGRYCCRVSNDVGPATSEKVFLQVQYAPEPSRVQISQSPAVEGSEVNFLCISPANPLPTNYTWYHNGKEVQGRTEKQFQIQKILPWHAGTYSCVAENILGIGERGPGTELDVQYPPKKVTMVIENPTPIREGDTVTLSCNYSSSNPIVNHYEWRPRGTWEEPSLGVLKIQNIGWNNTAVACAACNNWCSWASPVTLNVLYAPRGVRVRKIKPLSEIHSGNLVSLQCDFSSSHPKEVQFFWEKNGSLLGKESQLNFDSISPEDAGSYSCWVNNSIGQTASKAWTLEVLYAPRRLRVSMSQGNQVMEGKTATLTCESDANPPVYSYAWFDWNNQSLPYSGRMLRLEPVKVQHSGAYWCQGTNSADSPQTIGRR
experiment: biochemical
applied conditions: SPR, steady-state analysis; read-out: Affinity cyno CD22
pKd: −log10 of the molar value.
Entries and their pKd values follow.

Input line: State the recorded pKd for this entry: `C#CCNc1c(NCCCCCCO[C@]2(C(=O)O)C[C@H](O)[C@@H](NC(=O)CO)[C@H]([C@H](O)[C@H](O)CNC(=O)Cc3ccc(Cl)cc3)O2)c(=O)c1=O`
Output line: > 6.00

Input line: What would you report for `C#CCOCCCCCCO[C@]1(C(=O)O)C[C@H](O)[C@@H](NC(=O)CO)[C@H]([C@H](O)[C@H](O)CNC(=O)Cc2ccc(Cl)c(F)c2)O1` ?
Output line: > 6.00

Input line: // same read-out, input: `C#CCOCCOCCO[C@]1(C(=O)O)C[C@H](O)[C@@H](NC(=O)CO)[C@H]([C@H](O)[C@H](O)CNC(=O)Cc2ccc(-c3cc[nH]c(=O)c3)cc2)O1`
Output line: < 5.00
